TARGET DESC: DDR2 (Homo sapiens)
Sequence (Q16832 22-855): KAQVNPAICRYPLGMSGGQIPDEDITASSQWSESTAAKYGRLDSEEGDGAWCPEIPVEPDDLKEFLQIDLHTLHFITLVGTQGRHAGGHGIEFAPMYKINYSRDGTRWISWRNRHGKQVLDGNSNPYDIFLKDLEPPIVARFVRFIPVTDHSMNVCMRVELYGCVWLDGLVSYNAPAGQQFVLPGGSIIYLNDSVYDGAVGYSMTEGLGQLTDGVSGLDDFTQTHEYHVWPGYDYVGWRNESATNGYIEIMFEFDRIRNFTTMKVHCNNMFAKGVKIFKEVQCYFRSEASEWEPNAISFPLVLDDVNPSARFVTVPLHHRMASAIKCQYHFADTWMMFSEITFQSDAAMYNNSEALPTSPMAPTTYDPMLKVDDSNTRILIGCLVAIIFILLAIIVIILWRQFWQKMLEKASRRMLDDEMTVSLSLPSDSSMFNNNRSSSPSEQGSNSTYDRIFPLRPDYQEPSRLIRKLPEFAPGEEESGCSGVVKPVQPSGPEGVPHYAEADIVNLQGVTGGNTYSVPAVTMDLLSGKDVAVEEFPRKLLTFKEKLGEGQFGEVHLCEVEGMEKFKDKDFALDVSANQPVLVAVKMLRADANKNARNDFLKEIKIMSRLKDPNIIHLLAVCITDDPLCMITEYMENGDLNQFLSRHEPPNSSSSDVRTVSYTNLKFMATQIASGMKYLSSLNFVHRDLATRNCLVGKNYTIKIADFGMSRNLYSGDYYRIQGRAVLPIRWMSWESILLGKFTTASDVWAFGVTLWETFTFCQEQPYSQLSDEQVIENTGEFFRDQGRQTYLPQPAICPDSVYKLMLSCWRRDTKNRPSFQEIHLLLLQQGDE
TEST NAME: DDR2 cell based assay (phospho-ELISA in HEK293T-DDR2 recombinant cells, collagen II stimulation)
STUDY CONDITIONS: bovine Type II Collagen stimulation
READOUT TYPE: IC50

Recorded IC50 of CC(C)(c1cc(NC(=O)c2ccc3c(c2)N(Cc2cnc4[nH]ncc4c2)CC3)no1)C(F)(F)F , please.
50 to 80 nM

GET /values?readout=IC50&item= Cc1cn(-c2cc(NC(=O)c3ccc4c(c3)N(Cc3cnc5[nH]nc(C)c5c3)CC4)cc(C(F)(F)F)c2)cn1
25 to 50 nM

---

TARGET DESC: DDR1 (Homo sapiens, UniProt Q08345)
Sequence (Q08345 19-913): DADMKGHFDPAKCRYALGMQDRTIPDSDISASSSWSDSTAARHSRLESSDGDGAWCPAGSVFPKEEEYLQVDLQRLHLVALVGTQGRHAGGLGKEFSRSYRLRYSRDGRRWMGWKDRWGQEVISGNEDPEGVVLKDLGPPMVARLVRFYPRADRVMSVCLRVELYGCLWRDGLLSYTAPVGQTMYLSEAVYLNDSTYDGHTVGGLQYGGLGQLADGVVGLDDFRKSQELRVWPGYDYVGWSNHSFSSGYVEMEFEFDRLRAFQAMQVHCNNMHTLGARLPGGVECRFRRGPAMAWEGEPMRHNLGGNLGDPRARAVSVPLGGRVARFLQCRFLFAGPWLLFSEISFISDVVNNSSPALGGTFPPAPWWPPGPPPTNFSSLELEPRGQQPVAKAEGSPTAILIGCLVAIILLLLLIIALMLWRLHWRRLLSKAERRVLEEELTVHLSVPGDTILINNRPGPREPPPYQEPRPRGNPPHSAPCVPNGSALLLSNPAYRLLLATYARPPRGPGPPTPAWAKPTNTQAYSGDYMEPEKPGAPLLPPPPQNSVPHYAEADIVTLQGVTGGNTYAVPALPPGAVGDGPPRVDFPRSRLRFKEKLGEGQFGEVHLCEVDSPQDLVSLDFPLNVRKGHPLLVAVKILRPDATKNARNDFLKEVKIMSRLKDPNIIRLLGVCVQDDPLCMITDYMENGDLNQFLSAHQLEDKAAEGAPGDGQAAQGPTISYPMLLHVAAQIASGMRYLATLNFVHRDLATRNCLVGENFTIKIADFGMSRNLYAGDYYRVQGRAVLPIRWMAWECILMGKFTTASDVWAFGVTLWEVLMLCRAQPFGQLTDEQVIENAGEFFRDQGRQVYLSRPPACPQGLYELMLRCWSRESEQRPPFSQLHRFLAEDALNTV
compounds and their reported IC50

Cc1n[nH]c2ncc(CN3CCc4ccc(C(=O)Nc5ccc(CN(C)C)c(C(F)(F)F)c5)cc43)cc12 [Example 69]
< 25 nM
Cc1cn(-c2cc(C(=O)Nc3ccc4c(c3)N(C(=O)c3cnc5[nH]ncc5c3)CC4)cc(C(F)(F)F)c2)cn1 [Example 21]
25 to 50 nM
CC1CN(Cc2cnc3cnccn23)c2cc(C(=O)Nc3cncc(C(F)(F)F)c3)ccc21 (stereo not shown) [Example 92]
25 to 50 nM
Cc1cn(-c2cc(C(=O)Nc3ccc4c(c3)N(Cc3cnc5cnccn35)CC4)cc(C(F)(F)F)c2)cn1 [Example 22]
< 25 nM
CN(C)Cc1c[nH]c2ncc(CN3CCc4ccc(C(=O)Nc5cncc(C(F)(F)F)c5)cc43)cc12 [Example 83]
< 25 nM
Cc1n[nH]c2ncc(CN3CCc4ccc(C(=O)Nc5cc(CN6CCN(C)CC6)nc(C(F)(F)F)c5)cc43)cc12 [Example 81]
< 25 nM

Now turn to the next compound.
Given Cc1n[nH]c2ncc(CN3CCc4ccc(C(=O)Nc5cc(CN6CC[C@@H](N(C)C)C6)cc(C(F)(F)F)c5)cc43)cc12 [Example 72] , state its recorded IC50.
< 25 nM

FYI, the data here is from patent US20240217967A1.
